Field: HEK assay Cyno EC50. Provide a value for each of the binders that follow.
Target: Cynomolgus monkey IL-13 (cynomolgus monkey, UniProt Q0PW92 21-132)
Sequence (Q0PW92 entry or part of it): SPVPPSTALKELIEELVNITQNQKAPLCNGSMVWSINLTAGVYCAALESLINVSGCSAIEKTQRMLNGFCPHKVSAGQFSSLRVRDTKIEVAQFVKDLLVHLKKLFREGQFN
Experiment: cell-based or functional assay
One number for each entry, in nM.

Take a look at these entries with their results.
DOM10-53-567 (other) VH: GVQLLESGGGLVQPGGSLRLSCAASGFVFAWYDMGWVRQAPGKGLEWVSSIDWHGEVTYYADSVKGRFTISRDNSKNTLYLQMNSLRAEDTAVYYCATAEDEPGYDYWGQGTLVTVSS = 5.1
DOM10-53-568 (other) VH: GVQLLESGGGLVQPGGSLRLSCAASGFVFAWYDMGWVRQAPGKGLEWVSSIDWHGKITYYADSVKGRFTISRDNSKNTLYLQMNSLRAEDTAVYYCATAEDEPGYDYWGQGTLVTVSS = 8.8
DOM10-53-546 (other) VH: GVQLLESGGGLVQPGGSLRLSCAASGFVFPWYDMGWVRQAPGKGLEWVSSIDWKGGKTYYADSVKGRFTISRDNSKNTLYLQMNSLRAEDTAVYYCATAEDEPGYDYWGQGTLVTVSS = 5.9
DOM10-53-474 (other, Anti-IL-13 immunoglobulin single variable domain (dAb), monomer) VH: GVQLLESGGGLVQPGGSLRLSCAASGFTFAWYDMGWVRQAPGKGLEWVSSIDWHGEVTYYADSVKGRFTISRDNSKNTLYLQMNSLRAEDTAVYYCATAEDEPGYDYWGQGTLVTVSS = 30.1

Note: attention shifts to another entry.
[Q] Quick check: HEK assay Cyno EC50 of DOM10-53-616 (other) VH: GVQLLESGGGLVQPGGSLRLSCAASGFVFPWYDMGWVRQAPGKGLEWVSSIDWHGKITYYADSVKGRFTISRDNSKNTLYLQMNSLRAEDTAVYYCATAEDEPGYDYWGQGTLVTVSS ?
[A] 5.9
